# target under test: Bla2 (Bacillus anthracis)
# Sequence (Q93T40 1-256): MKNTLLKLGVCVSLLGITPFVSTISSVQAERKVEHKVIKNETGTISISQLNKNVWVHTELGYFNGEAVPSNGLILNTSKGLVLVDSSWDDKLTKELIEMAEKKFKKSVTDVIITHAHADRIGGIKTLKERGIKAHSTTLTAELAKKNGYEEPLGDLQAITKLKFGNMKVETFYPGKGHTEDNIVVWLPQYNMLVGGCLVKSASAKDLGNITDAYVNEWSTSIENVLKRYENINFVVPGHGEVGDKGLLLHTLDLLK
value type: Ki (µM)
Express the result in µM but write the number alone.

q: In one line, give reported Ki of the entry Nc1cccc(C2=NC(C(=O)O)CS2)c1 (stereo not shown) .
a: 15

====

So I've got a bunch of compounds here, and I need their Ki values.
# target under test: IMP-1 (Serratia marcescens)
# Sequence (P52699 19-246 limits assumed): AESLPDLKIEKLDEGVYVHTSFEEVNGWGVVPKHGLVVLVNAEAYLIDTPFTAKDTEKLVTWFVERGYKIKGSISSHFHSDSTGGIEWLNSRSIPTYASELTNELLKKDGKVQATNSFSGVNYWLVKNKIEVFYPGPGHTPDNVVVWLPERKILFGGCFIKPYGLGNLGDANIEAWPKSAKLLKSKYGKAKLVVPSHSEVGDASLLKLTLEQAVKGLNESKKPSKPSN
# test name: biochemical

q: In one line, give reported Ki of the entry O=C(NCc1ccccc1)c1cccc(O)n1 [Compound 3, N-benzyl-6-hydroxypyridine-2-carboxamide] .
a: 3 to 19 µM

q: In one line, give reported Ki of the entry O=c1ccc(-c2ccccc2)cn1O [Compound 4, 1-hydroxy-5-phenylpyridin-2-one] .
a: 3 to 19 µM
